meta.source: paper PMC5504357

The compounds listed here are annotated with their GM-bMIC.
Test system: Candida haemulonii
experiment_description: Biofilm-growing cells, XTT assay, bMIC
Assay type: cell-based
conditions_used: geometric mean, C. haemulonii isolates; values marked * do not include LIP Ch4 (>512)

compound	GM-bMIC
c1cnc2c(c1)ccc1cccnc12 [phen, 1,10-phenanthroline]	12.70 mg/L

// Input: O=[N+]([O-])[O-].[Ag+] [AgNO3, reference compound] . Output its GM-bMIC only.
16^* mg/L

// Input: CCO.O=C([O-])COCCOCCOCC(=O)[O-].[Ag+].[Ag+].c1cnc2c(c1)ccc1cccnc12.c1cnc2c(c1)ccc1cccnc12.c1cnc2c(c1)ccc1cccnc12.c1cnc2c(c1)ccc1cccnc12 [compound 16, [Ag2(3,6,9-tdda)(phen)4].EtOH] . Output its GM-bMIC only.
16 mg/L

// Input: O.O.O.O.O.O.O=C([O-])CCCCCCC(=O)[O-].O=C([O-])CCCCCCC(=O)[O-].O=C([O-])CCCCCCC(=O)[O-].O=C([O-])CCCCCCC(=O)[O-].[Mn+2].[Mn+2].[Mn+2].[Mn+2].c1cnc2c(c1)ccc1cccnc12.c1cnc2c(c1)ccc1cccnc12.c1cnc2c(c1)ccc1cccnc12.c1cnc2c(c1)ccc1cccnc12.c1cnc2c(c1)ccc1cccnc12.c1cnc2c(c1)ccc1cccnc12.c1cnc2c(c1)ccc1cccnc12.c1cnc2c(c1)ccc1cccnc12 [compound 13] . Output its GM-bMIC only.
22.63^* mg/L

// Input: O.O.O.O.O.O=C([O-])c1ccc(C(=O)[O-])cc1.[Mn+2].c1cnc2c(c1)ccc1cccnc12.c1cnc2c(c1)ccc1cccnc12 [compound 12, [Mn(tereph)(phen)2].5H2O] . Output its GM-bMIC only.
16^* mg/L

// Input: O.O.O=C([O-])c1ccccc1C(=O)[O-].[Mn+2].c1cnc2c(c1)ccc1cccnc12 [compound 8, [Mn(ph)(phen)(H2O)2]] . Output its GM-bMIC only.
8^* mg/L

// Input: O=C1C(=O)c2cccnc2-c2ncccc21 [phendione, 1,10-phenanthroline-5,6-dione, reference compound] . Output its GM-bMIC only.
11.31^* mg/L

// Input: O.O.O.O.O=C([O-])c1cccc(C(=O)[O-])c1.O=C([O-])c1cccc(C(=O)[O-])c1.[Mn+2].[Mn+2].c1cnc2c(c1)ccc1cccnc12.c1cnc2c(c1)ccc1cccnc12.c1cnc2c(c1)ccc1cccnc12 [compound 10, [Mn2(isoph)2(phen)3].4H2O] . Output its GM-bMIC only.
16^* mg/L

// Input: O.O.O.O=C([O-])CCCCCCCCCC(=O)[O-].[Ag+].[Ag+].c1cnc2c(c1)ccc1cccnc12.c1cnc2c(c1)ccc1cccnc12.c1cnc2c(c1)ccc1cccnc12 [compound 18, [Ag2(phen)3(udda)].3H2O] . Output its GM-bMIC only.
16 mg/L
